biological target: Fuc(a1-2)[Gal(a1-3)]Gal(b1-4)GlcNAc(b1-3)[Fuc(a1-2)[Gal(a1-3)]Gal(b1-4)GlcNAc(b1-6)]GalNAc; assay: glycan array binding signal (z-score within array); higher = stronger binding; conditions: glycan notation: IUPAC condensed, linker removed
Many of the other results were omitted from the sample, so the strongest signals are more common in it than they were.
List of glycan array binding signal (z-score) values.
Hey, just send me the number, nothing else.

For the binder shown here, SP16663B-bot-321-25-321 (Bacteroides ovatus) (protein) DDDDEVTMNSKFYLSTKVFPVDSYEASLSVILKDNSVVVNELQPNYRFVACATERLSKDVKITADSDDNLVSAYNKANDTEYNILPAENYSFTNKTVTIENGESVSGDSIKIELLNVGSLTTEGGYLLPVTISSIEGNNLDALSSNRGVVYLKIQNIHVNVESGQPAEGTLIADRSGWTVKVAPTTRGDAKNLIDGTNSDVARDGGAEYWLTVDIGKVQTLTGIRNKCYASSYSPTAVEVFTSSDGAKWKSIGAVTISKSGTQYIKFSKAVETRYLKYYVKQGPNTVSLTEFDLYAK , give the reported glycan array binding signal (z-score).
1.9

More entries:
Data request, read-out glycan array binding signal (z-score), for DrGRIFIN (Danio rerio), Q6DGJ1 (protein) MTLRFEASCPDGLCPGWSVILKGETPPEASKFEINFLCDRDDRVAFHFNPRFTESDIICNSYMANRWGQEERCNHFPLGVEEPFQIEIYSDNDHFHVYIDKAKVMQYKHRVEDLKTITKLQVVNDVKISSLEITKKLFY
6.36
